All values here come from ChEMBL document CHEMBL2177068.

system: NCI-H292; assay: Cellular uptake in human NCI-H292 cells assessed as compound retention at 3 to 20 uM incubated for 3 hrs followed by drug washout measured after 3 hrs by LC-MS/MS analysis relative to initial drug accumulation; format: ADME, cell-based; details: nci-h292, 3 h
assay.endpoint: Drug uptake (%)

Use the examples below as a reference point.
CCCCCCCC(=O)NCCCN1C[C@H](C)C[C@@](C)(O)[C@H](O[C@@H]2O[C@H](C)C[C@H](N(C)C)[C@H]2O)[C@@H](C)[C@H](O[C@H]2C[C@@](C)(OC)[C@@H](O)[C@H](C)O2)[C@@H](C)C(=O)O[C@H](CC)[C@@](C)(O)[C@H](O)[C@H]1C | 69
CC[C@H]1OC(=O)[C@H](C)[C@@H](O[C@H]2C[C@@](C)(OC)[C@@H](O)[C@H](C)O2)[C@H](C)[C@@H](O[C@@H]2O[C@H](C)C[C@H](N(C)C)[C@H]2O)[C@](C)(O)C[C@@H](C)CN(C)[C@H](C)[C@@H](O)[C@]1(C)O | 77

(P) CC[C@H]1OC(=O)[C@H](C)[C@@H](O)[C@H](C)[C@@H](O[C@@H]2O[C@H](C)C[C@H](N(C)C)[C@H]2O)[C@](C)(O)C[C@@H](C)CN(C)[C@H](C)[C@@H](O)[C@]1(C)O
(Q) CCCCCCCC(=O)NCCCN(C)[C@H]1C[C@@H](C)O[C@@H](O[C@@H]2[C@@H](C)[C@H](O[C@H]3C[C@@](C)(OC)[C@@H](O)[C@H](C)O3)[C@@H](C)C(=O)O[C@H](CC)[C@@](C)(O)[C@H](O)[C@@H](C)N(C)C[C@H](C)C[C@@]2(C)O)[C@@H]1O
(R) CC[C@H]1OC(=O)[C@H](C)[C@@H](O[C@H]2C[C@@](C)(OC)[C@@H](O)[C@H](C)O2)[C@H](C)[C@@H](O[C@@H]2O[C@H](C)C[C@H](N(C)C)[C@H]2O)[C@](C)(OC)C[C@@H](C)C(=O)N[C@H](C)[C@@H](O)[C@]1(C)O
(S) CC[C@H]1OC(=O)[C@H](C)[C@@H](O[C@H]2C[C@@](C)(OC)[C@@H](O)[C@H](C)O2)[C@H](C)[C@@H](O[C@@H]2O[C@H](C)C[C@H](N(C)C)[C@H]2O)[C@](C)(OC)C[C@@H](C)C(=O)[C@H](C)[C@@H](O)[C@]1(C)O
Query: Arrange the 4 compounds from largest to smallest Drug uptake. Give the labels in the order requested.
Result: P, Q, R, S
(P: 77%, Q: 51%, R: 23%, S: 1%)

* * *

experiment: Cellular uptake in human MDM assessed as compound retention at 3 to 20 uM incubated for 3 hrs followed by drug washout measured after 3 hrs by LC-MS/MS analysis relative to initial drug accumulation; format: ADME
assay.endpoint: Drug uptake (%)

Use the examples below as a reference point.
CCCCCCCC(=O)NCCCN(C)[C@H]1C[C@@H](C)O[C@@H](O[C@@H]2[C@@H](C)[C@H](O[C@H]3C[C@@](C)(OC)[C@@H](O)[C@H](C)O3)[C@@H](C)C(=O)O[C@H](CC)[C@@](C)(O)[C@H](O)[C@@H](C)N(C)C[C@H](C)C[C@@]2(C)O)[C@@H]1O | 100
CC[C@H]1OC(=O)[C@H](C)[C@@H](O[C@H]2C[C@@](C)(OC)[C@@H](O)[C@H](C)O2)[C@H](C)[C@@H](O[C@@H]2O[C@H](C)C[C@H](N(C)C)[C@H]2O)[C@](C)(OC)C[C@@H](C)C(=O)[C@H](C)[C@@H](O)[C@]1(C)O [CLARITHROMYCIN] | 4

(I) CC[C@H]1OC(=O)[C@H](C)[C@@H](O)[C@H](C)[C@@H](O[C@@H]2O[C@H](C)C[C@H](N(C)C)[C@H]2O)[C@](C)(O)C[C@@H](C)CN(C)[C@H](C)[C@@H](O)[C@]1(C)O [DESCLADINOSYL AZITHROMYCIN]
(II) CC[C@H]1OC(=O)[C@H](C)[C@@H](O[C@H]2C[C@@](C)(OC)[C@@H](O)[C@H](C)O2)[C@H](C)[C@@H](O[C@@H]2O[C@H](C)C[C@H](N(C)C)[C@H]2O)[C@](C)(OC)C[C@@H](C)C(=O)N[C@H](C)[C@@H](O)[C@]1(C)O
Query: Rank I against II by their Drug uptake values and give the higher one. Your answer should be the label of the entry you select.
Result: I
(I: 81%, II: 8%)
